experimental.readout: melting point

melting point for CCOCc1cc(OC)c(-c2ccc(C[C@H](NC(=O)c3c(F)cccc3Cl)C(=O)O)cc2)c(OC)c1 [Example 20] is 182 to 184 °C

// sample CCOCc1cc(OC)c(-c2ccc(C[C@H](NC(=O)c3c(F)cccc3F)C(=O)OCC)cc2)c(OC)c1 [Example 10] , its melting point was 87 to 89 °C

Form field melting point, entry CCOCc1cc(OC)c(-c2ccc(C[C@H](NC(=O)c3c(Cl)cccc3Cl)C(=O)OCC)cc2)c(OC)c1 [Example 1] : 91 to 94 °C

melting point reading for COCc1cc(OC)c(-c2ccc(C[C@H](NC(=O)c3c(Cl)cccc3Cl)C(=O)O)cc2)c(OC)c1 [Example 5] : 232 to 235 °C

melting point reading for CCOCCc1cc(OC)c(-c2ccc(C[C@H](NC(=O)c3c(F)cccc3F)C(=O)O)cc2)c(OC)c1 [Example 31] : 63 to 70 °C

Reported melting point ( CCOCc1cc(OC)c(-c2ccc(C[C@H](NC(=O)c3c(Cl)cccc3Cl)C(=O)O)cc2)c(OC)c1 [Example 3] ) = 196 to 198 °C

Memo: CCCOCc1cc(OC)c(-c2ccc(C[C@H](NC(=O)c3c(Cl)cccc3Cl)C(=O)O)cc2)c(OC)c1 [Example 7] , reported melting point: 183 to 186 °C

Form: compound = COCc1cc(OC)c(-c2ccc(C[C@H](NC(=O)c3c(F)cccc3Cl)C(=O)O)cc2)c(OC)c1 [Example 23] ; melting point = 170 to 175 °C

Source of measurements: patent US8501809B2
